Entries and their measured TGI follow.
Tested on: NCI-H522 lung
assay name: NCI tumour cell line growth inhibition, 48 h

A selection of reference data follows.
# get_value(readout='TGI', item= C[N+](C)(N)Cc1nc(-c2ccc(Cl)cc2)no1 ) > 100 µM

# get_value(readout='TGI', item= Clc1ccc2c(NCCCCNc3nc(N4CCOCC4)nc4ccccc34)ccnc2c1 ) 5.6 µM

# get_value(readout='TGI', item= Fc1ccc(F)c(C=NC23CC4CC(CC(C4)C2)C3)c1 ) > 10 µM

# get_value(readout='TGI', item= CCOC(=O)N1CCC2(CC1)C[C@](Sc1ccccc1)(C(C)=O)[C@H](C)O2 ) > 100 µM

# get_value(readout='TGI', item= [N-]=[N+]=NC1C(Cl)C(=O)NC(=O)N1[C@H]1C[C@H](O)[C@@H](CO)O1 (some centres not stated) ) 36.2 µM

# get_value(readout='TGI', item= CCN(CC)C(=O)c1cccc2c(OC)ccc(OC)c12 ) > 100 µM

# evaluate next
# get_value(readout='TGI', item= CCOC(=O)c1nc(SC)sc1NC(=O)c1ccc(OC)cc1 ) > 100 µM
